test system: HCV NS5B RdRp genotype 1b (Hepatitis C virus genotype 1b, UniProt Q9WMX2)
Construct: The protein was expressed with an 18 amino acid C-terminal truncation to enhance the solubility; made in house; host or cells: E. coli BL21(DE3), pET21a vector
Sequence (Q9WMX2 2420-2992): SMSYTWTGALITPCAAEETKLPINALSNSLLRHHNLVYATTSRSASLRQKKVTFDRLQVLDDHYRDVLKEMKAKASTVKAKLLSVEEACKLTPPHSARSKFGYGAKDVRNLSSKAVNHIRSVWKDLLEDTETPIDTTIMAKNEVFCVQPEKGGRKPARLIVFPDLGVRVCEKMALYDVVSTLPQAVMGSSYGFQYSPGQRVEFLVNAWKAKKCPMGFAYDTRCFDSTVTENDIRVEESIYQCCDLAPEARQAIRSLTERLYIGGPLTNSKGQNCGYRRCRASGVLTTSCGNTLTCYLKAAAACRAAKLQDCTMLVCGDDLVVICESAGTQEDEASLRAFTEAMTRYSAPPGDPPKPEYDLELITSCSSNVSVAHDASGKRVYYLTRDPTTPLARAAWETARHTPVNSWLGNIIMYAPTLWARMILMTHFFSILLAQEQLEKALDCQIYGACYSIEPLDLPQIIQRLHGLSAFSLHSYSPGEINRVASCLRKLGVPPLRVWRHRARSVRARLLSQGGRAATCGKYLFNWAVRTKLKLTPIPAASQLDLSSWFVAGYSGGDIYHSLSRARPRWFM
assay comment: HCV NS5B RdRp enzyme assay (standard / modified)
Format: biochemical
study conditions: Table 1; HCV NS5B genotype 1b
For each record, write down the corresponding IC50.

Example results:
smiles structure	IC50
CNC(=O)c1c(-c2ccc(F)cc2)nn2cc(N(CCO)S(C)(=O)=O)c(-c3cc(C(=O)NCC(C)C)ccc3Cl)cc12	2 to 250 nM
CNC(=O)c1c(-c2ccc(F)cc2)nn2ccc(NC(=O)c3ccc(OC)cc3)cc12	> 10000 nM

# batch: return IC50 for each of the 2 compounds below
1. CNC(=O)c1c(-c2ccc(F)cc2)nn2ccc(-c3cc(C(=O)NC4(c5ccc(F)cc5)CC4)c(OC)cc3C)c(F)c12
2. CC(C)(NC(=O)c1cccc(-c2ccn3nc(-c4ccccc4)c(C(=O)O)c3c2)c1)c1ccccc1

# output
1: 2 to 250 nM; 2: > 10000 nM
